Test system: SHI-1
Assay: cell viability (% survival relative to DMSO control, bortezomib = 0%); higher = less cytotoxic
Details: 10000 nM; 72 h
Property: cell viability (%)
Unit % implied. Number only.

Recorded cell viability, per entry:
Compound	Unit label	Quantitative readout
Oc1cc(Cl)ccc1Oc1ccc(Cl)cc1Cl	%	103
CC(Cc1ccc(O)c(O)c1)C(C)Cc1ccc(O)c(O)c1 (centres undefined)	%	70.1
C[C@]12CC[C@H](O)CC1=CC[C@@H]1[C@@H]2CC[C@]2(C)C(c3cccnc3)=CC[C@@H]12	%	112
CC(C)Cc1sc(N)nc1-c1ccc(P(=O)(O)O)o1	%	104
CCN(CC)CCN(Cc1ccc(-c2ccc(C(F)(F)F)cc2)cc1)C(=O)Cn1c(SCc2ccc(F)cc2)nc(=O)c2c1CCC2	%	-0.412
Clc1ccc2c(c1Cl)CNCC2	%	96.1
O=C(O)c1nn(Cc2ccc(Cl)cc2Cl)c2ccccc12	%	99.4
N[C@](CCCCB(O)O)(CCN1CCCCC1)C(=O)O	%	92.8

Then this compound:
Field cell viability (entry COc1c(C)c2c(c(O)c1C/C=C(\C)CCC(=O)O)C(=O)OC2 ) reads 14.4

====

System: myeloid leukemia patient primary cells Pat.12
Test: cell viability (% survival relative to DMSO control); higher = less cytotoxic
Settings: 10000 nM; 72 h
Property: cell viability (%)
Enter your answer as a number in %; do not include the unit.

Compound	Unit label	cell viability
Nc1ccn([C@@H]2O[C@H](CO)[C@@H](O)[C@@H]2O)c(=O)n1	%	67.7
C[C@H]1O[C@@H](O[C@H]2[C@@H](O)C[C@H](O[C@H]3[C@@H](O)C[C@H](O[C@H]4CC[C@@]5(C)[C@H](CC[C@@H]6[C@@H]5C[C@@H](O)[C@]5(C)[C@@H](C7=CC(=O)OC7)CC[C@]65O)C4)O[C@@H]3C)O[C@@H]2C)C[C@H](O)[C@@H]1O	%	12.6
CC(Cc1ccc(O)c(O)c1)C(C)Cc1ccc(O)c(O)c1 (centres undefined)	%	35.1

// switching to the query compound
cell viability in this record for C[C@]12O[C@H](C[C@]1(O)CO)n1c3ccccc3c3c4c(c5c6ccccc6n2c5c31)CNC4=O : 1.77

====

Tested on: myeloid leukemia patient primary cells Pat.10
Assay: area under dose-response curve (viability, 1 nM-10 uM) (fraction (0-1)); higher = more sensitive
Settings: 72 h
Property: area under dose-response curve
The response must contain the number and no unit.

Here's what some known entries look like.
Molecule	area under dose-response curve
CCOC(=O)N1c2ccc(C(F)(F)F)cc2[C@@H](N(Cc2cc(C(F)(F)F)cc(C(F)(F)F)c2)C(=O)OC)C[C@H]1CC [Torcetrapib]	0.212
C[C@]12O[C@H](C[C@]1(O)CO)n1c3ccccc3c3c4c(c5c6ccccc6n2c5c31)CNC4=O [Lestaurtinib]	0.124
Nc1ccn([C@@H]2O[C@H](CO)[C@@H](O)[C@@H]2O)c(=O)n1 [Cytarabine]	0.205

# next molecule below
Lookup result for Cc1noc2c1-c1ccccc1C(c1ccc(Cl)cc1)=N[C@H]2CC(N)=O [CPI-0610] ; measured area under dose-response curve: 0.458

====

System: myeloid leukemia patient primary cells Pat.5
Experiment: cell viability (% survival relative to DMSO control); higher = less cytotoxic
Conditions: 10 nM; 72 h
Response field label takes 1.0 when cell viability is strictly below 8% and 0.0 in all other cases.

Please review the following examples before continuing.
Molecule	Label class
Nc1ccn([C@@H]2O[C@H](CO)[C@@H](O)[C@@H]2O)c(=O)n1	1.0
COc1c(C)c2c(c(O)c1C/C=C(\C)CCC(=O)O)C(=O)OC2	0.0
CC12CCC(O)CC1CCC1C2CCC2(C)C(C3=CC(=O)OC3)CCC12O (stereo not given)	0.0

We now examine a further molecule.
stdin: Lab log: compare recorded cell viability with 8%; is it strictly lower for C[C@H]1O[C@@H](O[C@H]2[C@@H](O)C[C@H](O[C@H]3[C@@H](O)C[C@H](O[C@H]4CC[C@@]5(C)[C@H](CC[C@@H]6[C@@H]5C[C@@H](O)[C@]5(C)[C@@H](C7=CC(=O)OC7)CC[C@]65O)C4)O[C@@H]3C)O[C@@H]2C)C[C@H](O)[C@@H]1O ?
stdout: 0.0
